Permeability for assorted compounds
Test: Stirring double-sink PAMPA permeability
Format: in vitro ADME
Conditions: in-house at NCATS
State just the number; it will be interpreted in ×10⁻⁶ cm/s.

Data request: Using the record for Cc1ccccc1S(=O)(=O)Nc1cnccc1C(=O)Nc1nc(-c2ccccc2)cs1 , report its Permeability.
Data returned: 1064.7

Data request: Also check O=C(Nc1nc(-c2ccccc2)cs1)c1ccncc1NS(=O)(=O)c1ccc(N2CCCC2=O)cc1
Data returned: 313.5

----------
Assay: Kinetic aqueous solubility
Type: physicochemical
Details: kinetic aqueous solubility in PBS 7.4 buffer from a 10 mM DMSO stock
Measured attribute: Solubility (Ug/ml)
State just the number; it will be interpreted in Ug/ml.

>>> df
                                   compound  measured_attribute  assay_value
0  Cc1ccc(S(=O)(=O)Nc2cnccc2C(=O)Nc2nc(-c3ccccc3)cs2)cc1 [C2]          Solubility          9.4
1  Cc1ccccc1S(=O)(=O)Nc1cnccc1C(=O)Nc1nc(-c2ccccc2)cs1 [C7]          Solubility         50.0
2  COc1ccc(S(=O)(=O)Nc2cnccc2C(=O)Nc2nc(-c3ccccc3)cs2)cc1 [C8]          Solubility         54.1

In the following, a different compound is considered.
Data request: Using the record for O=C(Nc1nc(-c2ccccc2)cs1)c1ccncc1NS(=O)(=O)c1ccc(N2CCCC2=O)cc1 [C10] , report its Solubility.
Data returned: 57.0

----------
Molecular target: recombinant human GALK1 (Homo sapiens, UniProt P51570)
Sequence (P51570 whole entry): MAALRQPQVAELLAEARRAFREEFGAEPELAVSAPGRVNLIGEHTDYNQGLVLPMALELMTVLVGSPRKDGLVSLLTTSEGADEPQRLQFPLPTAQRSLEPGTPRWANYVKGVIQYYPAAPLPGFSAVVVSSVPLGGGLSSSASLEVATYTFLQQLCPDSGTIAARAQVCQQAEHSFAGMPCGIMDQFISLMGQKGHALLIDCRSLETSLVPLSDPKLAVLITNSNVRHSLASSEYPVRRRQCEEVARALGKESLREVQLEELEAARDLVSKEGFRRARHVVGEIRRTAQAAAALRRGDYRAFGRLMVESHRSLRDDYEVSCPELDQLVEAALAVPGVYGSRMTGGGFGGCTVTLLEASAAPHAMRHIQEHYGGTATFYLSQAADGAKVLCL
Assay: GALK1 inhibition assay
Assay type: biochemical
Conditions: luminescence GALK1-ATP-depletion assay; ATP 35 μM, galactose 100 μM
IC50 for assorted molecules
State just the number; it will be interpreted in µM.

// solved cases for IC50 follow
                            molecule_smiles  unit  assay_value
0  Cc1ccc(-c2csc(NC(=O)c3ccccc3NS(=O)(=O)c3ccc(C)cc3)n2)cc1    µM           14
1  COc1ccc(S(=O)(=O)Nc2cnccc2C(=O)Nc2nc(-c3ccccc3)cs2)cc1    µM         15.7
2  Cc1ccc(S(=O)(=O)Nc2cc(Cl)c(Cl)cc2C(=O)Nc2nc(-c3ccccc3)cs2)cc1    µM         22.2
3  O=C(Nc1nc(-c2ccccc2)cs1)c1ccncc1NS(=O)(=O)c1ccc(-c2ccccc2)cc1    µM         17.7
4  Cc1ccccc1S(=O)(=O)Nc1cnccc1C(=O)Nc1nc(-c2ccccc2)cs1    µM         11.1
5  Cc1ccc(S(=O)(=O)Nc2cc(C(F)(F)F)ccc2C(=O)Nc2nc(-c3ccccc3)cs2)cc1    µM         15.9
6  Cc1ccc(S(=O)(=O)Nc2cnccc2C(=O)Nc2nc(-c3ccccc3)cs2)cc1    µM           14
7  O=C(Nc1nc(-c2ccccc2)cs1)c1ccncc1NS(=O)(=O)c1ccc(N2CCCC2=O)cc1    µM         44.5

Data request: Using the record for COc1ccc(-c2csc(NC(=O)c3ccccc3NS(=O)(=O)c3ccc(C)cc3)n2)cc1 , report its IC50.
Data returned: 11.1

----------
Assay: Rat liver microsome stability
Type: in vitro ADME
Conditions: 37 °C, NADPH
Microsomal T1/2 for assorted molecules
State just the number; it will be interpreted in m.

Data request: Using the record for COc1ccc(-c2csc(NC(=O)c3ccccc3NS(=O)(=O)c3ccc(C)cc3)n2)cc1 , report its Microsomal T1/2.
Data returned: 6.3

Data request: Also check COc1ccc(S(=O)(=O)Nc2cnccc2C(=O)Nc2nc(-c3ccccc3)cs2)cc1
Data returned: 1.6

Data request: Also check O=C(Nc1nc(-c2ccccc2)cs1)c1ccncc1NS(=O)(=O)c1ccc(-c2ccccc2)cc1
Data returned: 2.0

Data request: Also check Cc1ccc(-c2csc(NC(=O)c3ccccc3NS(=O)(=O)c3ccc(C)cc3)n2)cc1
Data returned: 2.6

Data request: Also check O=C(Nc1nc(-c2ccccc2)cs1)c1ccncc1NS(=O)(=O)c1ccc(N2CCCC2=O)cc1
Data returned: 1.6

Data request: Also check Cc1ccc(S(=O)(=O)Nc2cc(Cl)c(Cl)cc2C(=O)Nc2nc(-c3ccccc3)cs2)cc1
Data returned: 13.0

Data request: Also check Cc1ccc(S(=O)(=O)Nc2cnccc2C(=O)Nc2nc(-c3ccccc3)cs2)cc1
Data returned: 17.0

Data request: Also check Cc1ccc(S(=O)(=O)Nc2cc(C(F)(F)F)ccc2C(=O)Nc2nc(-c3ccccc3)cs2)cc1
Data returned: 15.0
